// data source = patent US20250066422A1

assayedTarget: T1, HLA-A*0201 (human)
T1 construct: MHC monomer first loaded with a UV-sensitive peptide that is cleaved and exchanged for the test peptide; captured on streptavidin; also called peptide-receptive MHC molecules
testName: UV-ligand exchange, streptavidin/anti-b2m sandwich ELISA
observedProperty: Average exchange yield in % (%)

Sample records with Average exchange yield in %:
In [3]: df
Out[3]:
                                     binder  measuredresult
0  ALYGRLEVV (synthetic peptide from ANKS1A) [ANKS1A-001]              78
1  AMATESILHFA (synthetic peptide from PI4KA) [PI4KA-001]              51

[A] GLTDNIHLV (synthetic peptide from MXRA5) [MXRA5-002]
[B] TVIGFLLPFA (synthetic peptide from P2RY6) [P2RY6-001]
Task item: Rank A against B by their Average exchange yield in % values and give the higher one. Let me know the label of the one you choose.
Reply: B
